The reported numbers originate from ChEMBL document CHEMBL1201862.

- Tested on: HOP-62
- assay_protocol: NCI tumour cell line growth inhibition, 48 h
Active and inactive are the calls of the source. Rule as the data show it: active = GI50 up to about 1.1 µM and inactive = higher. Residues, ends and D or L forms follow the SMILES beside them. *: point of attachment. Boc = CC(C)(C)OC(=O)*; Bz = O=C(c1ccccc1)*
recorded_endpoint: GI50

// lookup GI50 for `C/C(=N\NC(=O)C(N)=O)c1c(O)cc(C)oc1=O`
> 100 µM (inactive)

// lookup GI50 for `S=C(N1CCN(c2ccccc2)CC1)N1CCN(c2ccccc2)CC1`
> 100 µM (inactive)

// lookup GI50 for `CCN(CC)C(=S)SNCCc1ccc(S(N)(=O)=O)cc1`
12.2 µM (inactive)

// lookup GI50 for `Cc1cc(O)cc(O)c1/N=N/c1ccc([N+](=O)[O-])cc1`
> 100 µM (inactive)

// lookup GI50 for CC(NC(=O)C(N)CC(=O)O)NC(=O)C1CCC1 (configuration not stated)
> 100 µM (inactive)

// lookup GI50 for `COc1ccc(OC)c(CCc2cc(OC)ccc2OC)c1`
3.73 µM (inactive)

// lookup GI50 for CC12CCCC(C#N)(C1)OC2=O (configuration not stated)
> 100 µM (inactive)

// lookup GI50 for `Cc1ccc(NC(=O)SCCC(=O)O)cc1`
> 100 µM (inactive)

// lookup GI50 for CCCCCCCCCCCCCCCCCCOCC(COP(=O)([O-])OCC[N+](C)(C)C)OC (configuration not stated)
19.2 µM (inactive)

// lookup GI50 for `COc1ccc(/C=C2\CN(C)Cc3c2nc(N)nc3-c2ccc(OC)cc2)cc1`
64.1 µM (inactive)

// lookup GI50 for `O=C(/C=N/c1ccccc1[S-])c1ccco1.O=C(/C=N/c1ccccc1[S-])c1ccco1.[Zn+2]`
6 µM (inactive)

// lookup GI50 for CC1CN1C(=O)NCCCCCCNC(=O)N1CC1C (configuration not stated)
30.2 µM (inactive)

// lookup GI50 for `C[N+](C)(N)Cc1csc(-c2ccc(Cl)cc2)n1`
75.7 µM (inactive)

// lookup GI50 for CC(NC(=O)C(Cc1ccc(OC(=O)c2ccccc2)cc1)NC(=O)OC(C)(C)C)C(=O)NC(Cc1ccccc1)C(=O)NCC(N)=O (configuration not stated) (Boc-Y(Bz)AFG-NH2; configuration not given here)
14.9 µM (inactive)

// lookup GI50 for O=C1N=C(c2ccccc2)OC1C(=O)c1ccccc1 (configuration not stated)
> 100 µM (inactive)

// lookup GI50 for COC1(C)CC2N(C(=O)c3ccccc3)N=C(c3ccccc3)CC2(C)O1 (configuration not stated)
> 100 µM (inactive)

// lookup GI50 for `NNC(=O)c1c(SCc2ccccc2)nc2c3ccccc3ccn12`
10.2 µM (inactive)

// lookup GI50 for `O=S1(=O)OCCCOS(=O)(=O)C1Br`
> 100 µM (inactive)

// lookup GI50 for `O=C1/C(=C\c2ccccc2)c2ccccc2N1Cc1ccccc1`
13.1 µM (inactive)

// lookup GI50 for `COC(=O)c1c(O)ccc2c1c1c(n2Cc2cc(OC)cc(OC)c2)C(=O)c2ccccc2C1`
> 100 µM (inactive)

// lookup GI50 for NC(=O)N1N=C2c3ccccc3CC[C@@H]2C1c1ccccc1 (some centres not stated)
> 100 µM (inactive)

// lookup GI50 for `Cc1ccc(S(=O)(=O)N(CCN)c2cc3c4c(c2)Oc2cccc5c2C4c2c(cccc2O3)O5)cc1`
15.4 µM (inactive)
